Test system: HIV-1 (H9IIIB strain)
Assay: Cell-Based HIV Infection Assay Using a Reporter (MT4-GFP cells)
Conditions: Human immunodeficiency virus 1, inflection point (IP) of viral growth inhibition; MT4-GFP cells infected with HIV-1 H9IIIB; 50% normal human serum; mean of at least two independent experiments; read-out: Cell Based IP (50% NHS)
value_kind: pEC50
Numbers only, as −log10 of the molar value.

See these solved cases before continuing.
C[C@@H]1C[C@H](C(c2ccc(F)cc2)[C@H](N)C(=O)Nc2cccc(F)c2CC[C@H]2CN[C@@H]3CCCS(=O)(=O)N2C3)C[C@H](C)O1 (some centres unmarked) | 8.06
COC(=O)N[C@H](C(=O)Nc1cccc(F)c1CCC1CNC2CCCS(=O)(=O)N1C2)[C@@H](c1ccc(Cl)cc1)c1ccc(C(F)(F)F)nc1 (some centres unmarked) | 8.30
COC(=O)N[C@H](C(=O)Nc1cccc(F)c1CCC1CNC2CCCS(=O)(=O)N1C2)C(c1ccc(Cl)cc1)c1ccc(OC(C)C)nc1 (stereo in doubt) | 8.19
COC(=O)N[C@H](C(=O)Nc1cccc(C(F)(F)F)c1CC[C@H]1CN[C@@H]2CCCS(=O)(=O)N1C2)[C@@H](c1ccc(F)cc1)C1C[C@@H](C)O[C@@H](C)C1 (some centres unmarked) | 6.82

Then there is this compound:
Lab book: pEC50 of CC1(C)C[C@@H]([C@H](c2ccc(Cl)cc2)[C@H](N)C(=O)Nc2cccc(F)c2CC[C@H]2CN[C@@H]3CCCS(=O)(=O)N2C3)CCO1 noted as 8.17

The values you see were collected from patent US10138255B2.
